Hey, just so you know, these numbers are from paper PMC13372822.

Target: OXGR1 (Homo sapiens)
Assay: Calcium mobilization assay (Fluo-4 AM), wild-type OXGR1 in HEK293
Details: EC50, OXGR1 WT; mutant series (Appendix Table S4)
Counter-ions that a name gives are not always drawn.
measured_quantity: EC50 (µM)

compound	system	observed_measurement
O=C(O)/C=C\C(=O)O [MA, maleate]	OXGR1 (Homo sapiens)	2000

* * *

Test system: OXGR1 mutants (variant named in the endpoint)
Experiment: Calcium mobilization assay, OXGR1 mutants in HEK293;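 also: human OXGR1 variants transiently expressed in HEK293 cells, with intracellular calcium read out by Fluo-4 AM fluorescence, measured 24 h after transfection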
Conditions: OXGR1 F250A
pEC50: −log10 of the molar value.

compound	pEC50
C=C(CC(=O)O)C(=O)O [ITA, itaconate]	< 3.00

* * *

In this section we review reported pEC50 values for a set of molecules.
Target: SUCR1 mutants (variant named in the endpoint) (Homo sapiens, UniProt Q9BXA5, F175L)
Construct: The full-length human SUCR1 and mutations were fused after the HA signal peptide and Flag tag; HA signal peptide (N); Flag (N)
Sequence (Q9BXA5 1-334 F175L): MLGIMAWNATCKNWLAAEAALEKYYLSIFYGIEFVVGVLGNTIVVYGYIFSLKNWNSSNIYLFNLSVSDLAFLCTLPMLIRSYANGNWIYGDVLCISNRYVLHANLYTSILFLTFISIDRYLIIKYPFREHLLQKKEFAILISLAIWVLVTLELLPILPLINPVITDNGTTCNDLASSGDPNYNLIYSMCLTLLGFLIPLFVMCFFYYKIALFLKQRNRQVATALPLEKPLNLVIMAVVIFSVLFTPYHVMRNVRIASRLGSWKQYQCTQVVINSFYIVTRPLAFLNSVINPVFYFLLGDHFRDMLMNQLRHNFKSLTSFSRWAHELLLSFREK
Assay: Calcium mobilization assay, SUCR1 mutants in HEK293 stably expressing Gα16
Conditions: SUCR1 F175L
pEC50: −log10 of the molar value.

molecule	pEC50
O=C(O)CCC(=O)O [SUC, succinate]	4.74
C=C(CC(=O)O)C(=O)O [ITA, itaconate]	3.47
